- ASSAY_SETUP: radioactivity of oral 3H-paclitaxel 9 mg/kg; cyclosporin dose 2 × 5 mg/kg oral
Entries annotated with measured AUC0-24
Unit μg eq. hr/ml implied. Number only.

Previously resolved entries follow.
>>> reading("CCCC[C@@H](C)[C@@H](O)[C@H]1C(=O)N[C@@H](CC)C(=O)N(C)CC(=O)N(C)[C@@H](CC(C)C)C(=O)N[C@@H](C(C)C)C(=O)N(C)[C@@H](CC(C)C)C(=O)N[C@@H](C)C(=O)N[C@H](C)C(=O)N(C)[C@@H](CC(C)C)C(=O)N(C)[C@@H](CC(C)C)C(=O)N(C)[C@@H](C(C)C)C(=O)N1C [Cyclosporin Dihydro A, dihydro cyclosporin A]")
8.5
>>> reading("C/C=C/C[C@@H](C)C[C@H]1C(=O)N[C@@H](CC)C(=O)N(C)CC(=O)N(C)[C@@H](CC(C)C)C(=O)N[C@@H](C(C)C)C(=O)N(C)[C@@H](CC(C)C)C(=O)N[C@@H](C)C(=O)N[C@H](C)C(=O)N(C)[C@@H](CC(C)C)C(=O)N(C)[C@@H](CC(C)C)C(=O)N(C)[C@@H](C(C)C)C(=O)N1C")
8.99
>>> reading("C/C=C/C[C@@H](C)[C@@H](O)[C@H]1C(=O)N[C@@H]([C@@H](C)O)C(=O)N(C)CC(=O)N(C)[C@@H](CC(C)C)C(=O)N[C@@H](C(C)C)C(=O)N(C)[C@@H](CC(C)C)C(=O)N[C@@H](C)C(=O)N[C@H](C)C(=O)N(C)[C@@H](CC(C)C)C(=O)N(C)[C@@H](CC(C)C)C(=O)N(C)[C@@H](C(C)C)C(=O)N1C")
11.39

Quick one: give measured AUC0-24 for "C/C=C/C[C@@H](C)[C@@H](O)[C@H]1C(=O)N[C@@H](CC)C(=O)N(C)CC(=O)N(C)[C@@H](CC(C)C)C(=O)N[C@@H](C(C)C)C(=O)N[C@@H](CC(C)C)C(=O)N[C@@H](C)C(=O)N[C@H](C)C(=O)N(C)[C@@H](CC(C)C)C(=O)N(C)[C@@H](CC(C)C)C(=O)N(C)[C@@H](C(C)C)C(=O)N1C" 5.02

Quick one: give measured AUC0-24 for "C/C=C/C[C@@H](C)[C@@H](OC(C)=O)[C@H]1C(=O)N[C@@H](CC)C(=O)N(C)CC(=O)N(C)[C@@H](CC(C)C)C(=O)N[C@@H](C(C)C)C(=O)N(C)[C@@H](CC(C)C)C(=O)N[C@@H](C)C(=O)N[C@H](C)C(=O)N(C)[C@@H](CC(C)C)C(=O)N(C)[C@@H](CC(C)C)C(=O)N(C)[C@@H](C(C)C)C(=O)N1C" 8.39

Quick one: give measured AUC0-24 for "C/C=C/C[C@@H](C)[C@@H](O)[C@H]1C(=O)N[C@@H](CCC)C(=O)N(C)CC(=O)N(C)[C@@H](CC(C)C)C(=O)N[C@@H](C(C)C)C(=O)N(C)[C@@H](CC(C)C)C(=O)N[C@@H](C)C(=O)N[C@H](C)C(=O)N(C)[C@@H](CC(C)C)C(=O)N(C)[C@@H](CC(C)C)C(=O)N(C)[C@@H](C(C)C)C(=O)N1C" 13.22

Origin of values: patent US20050238634A1
